viability at 28.5 h, 10 µM values by entry
# Procedure details: in vitro
# Condition parameters: human, hela cells, % viability
Measured quantity: viability at 28.5 h, 10 µM (%)

1. Cc1occc1C(=O)Nc1cnn(CCCC(=O)O)c1 [CBK270116] = 89.4
2. O=C(Cc1ccsc1)N1CCC2(CCN(Cc3ccccc3)CC2)C1 [CBK136742] = 89.8
3. O=C1NC2(CCc3ccccc31)CCN(C(=O)c1ccncc1)C2 (stereo not shown) [CBK283336] = 90.9
4. O=C(Nc1ccc(S(=O)(=O)N2CCCC2)cc1)c1ccc(COc2ccc3c(c2)CCC3)o1 [CBK265847] = 89.1
5. CCc1nccn1CCCNC(=O)Nc1cc(-c2cccnc2)nn1C [CBK306657] = 88.3
6. Cc1ccc2[nH]c3c(c2c1)CCOC31CCN(Cc2ccccc2-c2ccccc2)CC1 [CBK039915] = 89.1
7. Cc1cc(=O)oc2cc(NC(=S)NNC(=O)C(C)Oc3ccc4c(c3)CCC4)ccc12 (stereo not shown) [CBK267031] = 91.4

---

viability at 28.5 h, 10 µM values by entry
# Procedure details: in vitro
# Condition parameters: human, hela cells, % viability
Measured quantity: viability at 28.5 h, 10 µM (%)

1. S=C(Nc1ccc(Nc2ccccc2)cc1)N1CCN(Cc2ccc3c(c2)OCO3)CC1 = 96.7
2. COC(=O)c1ccccc1NC(=O)c1ccc(-n2cnnn2)cc1 = 91.1
3. CCOC(=O)c1c(NC(=O)CSc2nnc[nH]2)sc2c1CCCC2 = 93.1
4. O=C(Nc1ccncc1)c1cccn(Cc2ccccc2F)c1=O = 111
5. C=CCn1c(CCCNC=O)nc2ccccc21 = 94.2
6. CC(C)N1CCN(c2nccnc2Cl)CC1 = 101
7. CN(Cc1nnc(C2CC2)n1C)C1CCN(CCCc2cn[nH]c2)C1 (stereo not shown) = 85.2
8. CC(=O)Nc1ccc(S(=O)(=O)NCCSc2ccc(C)cc2)cc1 = 111
9. COc1ccc(-c2ccc3ccc(=O)[nH]c3n2)cc1C = 108
10. COC(=O)c1cccc2c(C)c(C)[nH]c12 = 97.4
11. O=c1[nH]c(=O)c2cc(S(=O)(=O)Nc3ccccc3Cc3ccccc3)ccc2[nH]1 = 94.3
12. Cc1ccc(S(=O)(=O)NC(C)C(=O)NCc2ccco2)cc1 (stereo not shown) = 109
13. COc1cc(-c2cc(N3CCN(CCN4CCCC4)CC3)ncn2)cc(OC)c1OC = 102
14. CCOC(=O)Cc1csc(NS(=O)(=O)c2cn(C)cn2)n1 = 112
15. COc1cc(C2CC(=O)N(c3cc(C)on3)C(=O)C2)cc(OC)c1OC = 109
16. COc1ccc(Cl)cc1NC(=O)C(=O)NCC1CCCO1 (stereo not shown) = 91.8
17. CN1CCCN(c2cc(C(F)(F)F)c3scc(C(=O)NCc4cccc(F)c4F)c3n2)CC1 [CBK036386T] = 87.9
18. Cn1cc(CN2CCCN(C(=O)CCCc3ccccn3)CC2)cn1 = 87.3
19. CC(=O)N1CCC(C(=O)NC(=O)Nc2ccccc2F)CC1 = 107
20. Cc1nc(SCC(=O)O)nc(O)c1CCC(C)C = 92.9
21. Cn1nccc1C(=O)N[C@H]1CCC[C@@H](c2c[nH]c3ccccc23)C1 = 93.6
22. Cc1n[nH]c(NNC(=O)COc2ccc(Cl)cc2)c1[N+](=O)[O-] = 98.2
23. CC(C)(C)OC(=O)N1CCCC(C(=O)NC2CCCc3ccccc32)C1 (stereo not shown) = 93.2
24. O=[N+]([O-])c1ccc(N2CCNCC2)cc1NCCO = 75.1
25. CN1CCN(NC(=O)C23CCC(C)(C(=O)O2)C3(C)C)CC1 (stereo not shown) = 99.1
26. CCC(C)CS(=O)(=O)c1nc(C)c(C)n1CC1CCCO1 (stereo not shown) = 114
27. CCC(=O)N1CCc2cc(C(O)CN3CCCCC3)ccc21 (stereo not shown) = 98.3
28. NC(=O)C1CCCN(S(=O)(=O)c2ccc(S(N)(=O)=O)cc2)C1 (stereo not shown) = 96.2
29. CCCCc1ccc(-c2nc(NC(=O)NCC)cc3cccnc23)cc1 = 94.6
30. COCCN1CCn2c(nc3cc(NC(=O)c4ccco4)ccc32)C1 = 88.2
31. Cn1cnnc1CNC(=O)N1CCN(Cc2cccs2)CC1 = 86.3
